target: Neurogenic locus notch homolog protein 2 (Homo sapiens) (UniProt Q04721); assay: small molecules binding Notch2 protein – biochemical, small-molecule microarray, 635 nm fluorescence, stem cell growth factors, primary screen (AID 1073); settings: higher = more signal
Sequence (Q04721 whole entry, looked up): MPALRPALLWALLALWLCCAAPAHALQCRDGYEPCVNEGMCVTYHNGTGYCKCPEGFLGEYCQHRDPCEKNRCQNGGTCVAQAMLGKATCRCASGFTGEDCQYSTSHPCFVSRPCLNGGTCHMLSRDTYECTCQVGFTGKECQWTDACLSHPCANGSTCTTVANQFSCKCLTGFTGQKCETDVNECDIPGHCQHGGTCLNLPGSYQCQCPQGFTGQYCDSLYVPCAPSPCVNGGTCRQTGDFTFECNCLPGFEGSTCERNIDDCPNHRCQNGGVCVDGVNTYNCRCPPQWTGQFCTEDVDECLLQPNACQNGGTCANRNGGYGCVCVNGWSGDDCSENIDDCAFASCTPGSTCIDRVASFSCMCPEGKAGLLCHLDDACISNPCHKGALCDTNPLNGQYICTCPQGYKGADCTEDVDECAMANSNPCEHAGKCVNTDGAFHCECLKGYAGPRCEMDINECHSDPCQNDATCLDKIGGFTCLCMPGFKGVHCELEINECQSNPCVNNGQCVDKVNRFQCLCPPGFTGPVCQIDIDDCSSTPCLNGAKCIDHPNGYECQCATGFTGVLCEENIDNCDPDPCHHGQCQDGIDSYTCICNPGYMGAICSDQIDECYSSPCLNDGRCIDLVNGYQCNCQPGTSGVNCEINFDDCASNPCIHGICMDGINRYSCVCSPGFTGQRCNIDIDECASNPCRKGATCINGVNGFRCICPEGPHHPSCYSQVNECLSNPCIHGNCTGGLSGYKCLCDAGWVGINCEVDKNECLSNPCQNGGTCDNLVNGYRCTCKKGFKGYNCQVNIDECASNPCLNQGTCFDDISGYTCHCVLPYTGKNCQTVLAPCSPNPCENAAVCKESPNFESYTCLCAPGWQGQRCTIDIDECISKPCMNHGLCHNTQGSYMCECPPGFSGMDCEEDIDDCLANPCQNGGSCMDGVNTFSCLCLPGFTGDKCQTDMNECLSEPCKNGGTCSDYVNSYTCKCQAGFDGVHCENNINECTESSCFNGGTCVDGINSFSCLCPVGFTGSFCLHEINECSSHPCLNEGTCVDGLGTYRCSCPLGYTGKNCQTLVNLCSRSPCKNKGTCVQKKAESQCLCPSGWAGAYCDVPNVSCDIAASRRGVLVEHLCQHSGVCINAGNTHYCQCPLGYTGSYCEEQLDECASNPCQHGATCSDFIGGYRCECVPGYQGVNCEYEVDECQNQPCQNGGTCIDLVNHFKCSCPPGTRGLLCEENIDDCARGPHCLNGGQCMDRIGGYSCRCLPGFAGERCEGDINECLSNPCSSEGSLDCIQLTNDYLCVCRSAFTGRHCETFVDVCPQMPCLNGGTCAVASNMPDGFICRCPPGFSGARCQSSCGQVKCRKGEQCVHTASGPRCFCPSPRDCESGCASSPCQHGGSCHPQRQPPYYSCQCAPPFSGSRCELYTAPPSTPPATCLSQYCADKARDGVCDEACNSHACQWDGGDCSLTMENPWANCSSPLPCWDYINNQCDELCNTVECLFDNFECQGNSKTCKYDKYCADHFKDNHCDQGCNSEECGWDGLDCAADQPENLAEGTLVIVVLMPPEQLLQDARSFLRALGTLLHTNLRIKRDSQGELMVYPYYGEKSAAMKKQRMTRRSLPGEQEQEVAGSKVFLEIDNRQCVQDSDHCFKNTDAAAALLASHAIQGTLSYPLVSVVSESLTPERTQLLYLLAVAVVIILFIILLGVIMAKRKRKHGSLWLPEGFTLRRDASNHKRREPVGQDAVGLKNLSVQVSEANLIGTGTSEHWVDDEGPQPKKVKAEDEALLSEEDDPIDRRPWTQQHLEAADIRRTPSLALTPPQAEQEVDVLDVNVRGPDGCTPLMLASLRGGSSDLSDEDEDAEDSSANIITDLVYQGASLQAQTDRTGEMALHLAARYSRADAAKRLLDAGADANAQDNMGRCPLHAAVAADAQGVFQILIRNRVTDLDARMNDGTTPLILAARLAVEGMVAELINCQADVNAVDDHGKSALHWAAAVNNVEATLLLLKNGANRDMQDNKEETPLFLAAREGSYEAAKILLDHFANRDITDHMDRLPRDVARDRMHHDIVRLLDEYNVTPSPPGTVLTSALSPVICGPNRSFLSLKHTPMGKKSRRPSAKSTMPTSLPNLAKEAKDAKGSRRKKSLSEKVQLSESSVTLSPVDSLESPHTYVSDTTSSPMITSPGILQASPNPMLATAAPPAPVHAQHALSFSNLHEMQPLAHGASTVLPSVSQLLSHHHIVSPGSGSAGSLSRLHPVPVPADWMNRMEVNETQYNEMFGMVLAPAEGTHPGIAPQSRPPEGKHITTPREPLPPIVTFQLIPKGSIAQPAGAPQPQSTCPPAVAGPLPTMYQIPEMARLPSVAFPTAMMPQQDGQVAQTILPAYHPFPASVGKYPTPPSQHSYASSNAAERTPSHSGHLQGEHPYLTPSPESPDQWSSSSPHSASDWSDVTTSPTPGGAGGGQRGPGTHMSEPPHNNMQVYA
measured_metric: composite z-score
Just the number, please, no unit after it.

Task item: Fill blank: measured composite z-score of the molecule CCCNC(=O)[C@@H]1c2ccccc2C(=O)N(Cc2ccc(OC(F)(F)F)cc2)[C@H]1c1ccc(CO)cc1 is ____.
Reply: 0.634

Task item: Fill blank: measured composite z-score of the molecule CCN(CC)c1ccc(N2CC=CC34O[C@@H]5/C=C\CCCOC(=O)C5[C@H]3C(=O)N(C(C)CO)[C@@H]4C2=O)cc1 (some centres undefined) is ____.
Reply: -0.0693

Task item: Fill blank: measured composite z-score of the molecule CCCC[C@@H](O)C1=C(COC)C[C@H]2C(=O)N(Cc3ccccc3)C(=O)[C@H]2[C@H]1CO is ____.
Reply: 0.395

Task item: Fill blank: measured composite z-score of the molecule CN1C(=O)C2C=CC(C(O)c3cccn3C)N(Nc3ccc([N+](=O)[O-])cc3[N+](=O)[O-])C2C1=O (centres undefined) is ____.
Reply: 1.05

---

target: Fibroblast growth factor 10 (Homo sapiens) (UniProt O15520); assay: compounds binding fibroblast growth factor 10 – biochemical, small-molecule microarray, 635 nm fluorescence, primary screen (AID 1102); settings: FGF10 binding, fluorescence 635 nm, higher = more signal
Sequence (O15520 whole entry, looked up): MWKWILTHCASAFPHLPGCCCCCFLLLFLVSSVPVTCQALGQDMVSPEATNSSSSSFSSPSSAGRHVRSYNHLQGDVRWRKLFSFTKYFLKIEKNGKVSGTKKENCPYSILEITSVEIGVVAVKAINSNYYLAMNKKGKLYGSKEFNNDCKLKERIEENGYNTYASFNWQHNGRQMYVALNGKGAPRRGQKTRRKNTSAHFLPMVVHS
Rule: satisfied for composite z-score not less than 1, not satisfied for anything less.

Task item: Reported composite z-score at or above 1? COc1cc(C(O)C2C=CC3C(=O)N(C)C(=O)C3N2Nc2ccccc2)cc(OC)c1OC (configuration not stated)
Reply: not satisfied

Task item: Reported composite z-score at or above 1? CC(C)[Si]1(C(C)C)OCc2cc(C3CC3)nc(-c3ccc(Oc4ccccc4)cc3)c21
Reply: not satisfied

Task item: Reported composite z-score at or above 1? COC(=O)[C@@]1(Cc2ccc(OC)cc2)[C@H]2c3cc(C(=O)N4CCCC4)n(CCc4c[nH]c5ccc(O)cc45)c3C[C@H]2CN1C(=O)c1ccccc1
Reply: satisfied

Task item: Reported composite z-score at or above 1? CC1CC/C=C\[C@H]2OC34C=CCN(C(C)(C)C)C(=O)[C@H]3N(CCCCCO)C(=O)[C@@H]4C2C(=O)O1 (some centres not stated)
Reply: not satisfied

Task item: Reported composite z-score at or above 1? COC(=O)[C@@H]1N=C(c2ccc(OCCCO)cc2)O[C@@H]1C
Reply: not satisfied

Task item: Reported composite z-score at or above 1? [N-]=[N+]=Nc1ccccc1[C@H]1OC(c2ccc(OCCCO)cc2)=N[C@@]1(Cc1ccccc1)C(=O)NCCN1CCOCC1
Reply: satisfied

Task item: Reported composite z-score at or above 1? COCCOC(=O)N1C(=O)[C@@]2(c3cc(C#CC4=CCCCC4)ccc31)[C@H](C(=O)Nc1nc3ccccc3s1)[C@H]1C(=O)O[C@H](c3ccccc3)[C@H](c3ccccc3)N1[C@@H]2c1ccc(O)cc1
Reply: not satisfied

---

biological target: Luciferin 4-monooxygenase (Photinus pyralis); assay: inhibition of purified Photinus pyralis luciferase – biochemical, luminescence, purified enzyme, 2006 set, primary screen (AID 1141); details: purified firefly luciferase, SteadyGlo luminescence, 30 min; higher = more signal, called active from +8 up or from −8 down;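 also: cell-free assay with purified firefly luciferase at 100 ng per well in PBS; test concentration not given here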
Can you tell me z-score for the items I'm about to list?
Just the number, please, no unit after it.

Task item: Fill blank: measured z-score of the compound COCCOC(=O)N1C(=O)[C@@]2(c3ccccc31)[C@H](c1ccc(O)cc1)N1[C@H](c3ccccc3)[C@H](c3ccccc3)OC(=O)[C@H]1[C@@H]2C(=O)N1CCN(c2ncccn2)CC1 is ____.
Reply: 0.504

Task item: Fill blank: measured z-score of the compound CC(CO)N1C(=O)[C@@H]2[C@H]3C(=O)OCC=C[C@H]3OC23C=CCN(Cn2nnc4ccccc42)C(=O)[C@@H]13 (stereo partly drawn) is ____.
Reply: 0.27

Task item: Fill blank: measured z-score of the compound COc1cc2c(cc1O)C=[N+](Cc1sc3ccccc3c1Cl)CC2 is ____.
Reply: 0.5

Task item: Fill blank: measured z-score of the compound CO[C@H]1O[C@H](CO)[C@@H](OC(=O)CCc2ccccc2)[C@@H]2OC(=O)[C@@H](Cc3ccccc3)C/C=C/C[C@H](Cc3ccccc3)C(=O)O[C@@H]12 is ____.
Reply: 0.769

Task item: Fill blank: measured z-score of the compound COC(=O)[C@@H]1N=C(c2ccc(OCCCO)cc2)O[C@@H]1c1ccccc1 is ____.
Reply: -13.4

Task item: Fill blank: measured z-score of the compound C#CCN(Cc1ccccc1Br)[C@H](/C=C/c1ccccc1)[C@@H](O)Cc1ccccc1 is ____.
Reply: -0.629

Task item: Fill blank: measured z-score of the compound C=C(COC)/C(=C/C[C@H](OC(=O)c1ccncc1)c1ccccc1OCCO)c1cc(C(=O)OC)ccc1OC is ____.
Reply: -0.756

Task item: Fill blank: measured z-score of the compound CC(C)N1C(=O)C[C@@](C(=O)NC2CC2)(c2ccc([N+](=O)[O-])cc2)[C@H]1c1ccc(CO)cc1 is ____.
Reply: -0.254
